Could you please report measured melting point for the items listed next?
Field format: number, assumed °C, no unit text.

The compound identified as O=C1NCCn2c1cc1c(F)c(F)cc(-c3ccc(Cl)cc3)c12 registered its melting point at 327

melting point in this record for Cc1c2n(c3c(-c4ccc(F)nc4)cc(F)cc13)CCNC2=O : 247

The compound identified as C[C@@H]1CNC(=O)c2cc3cc(F)cc(-c4ccc(C(F)(F)F)cc4)c3n21 registered its melting point at 307

# melting point of N#Cc1cc(-c2ccc(F)cc2F)c2c(c1)cc1n2CCNC1=O = 292

Entry N#Cc1cc(-c2ccc(Cl)nc2)c2c(c1)cc1n2CCNC1=O ; melting point = 300.5

Note to self: melting point recorded for Cc1cc(-c2ccc(Cl)cc2)c2c(c1)cc1n2CCCNC1=O was 258.5

Record summary for Cc1ccc(-c2cc(C#N)cc3c(C)c4n(c23)CCCNC4=O)cc1 : reported melting point = 287

GET /value?item= Cc1c2n(c3c(-c4ccccc4)cc(F)cc13)CCNC2=O &field=melting point returns 244

Sample Cc1c2n(c3c(-c4ccc(Cl)cc4)cc(Cl)cc13)CCNC2=O ; melting point observed: 236.5

Please fill in: melting point reported for N#Cc1cc(-c2ccc(OC(F)(F)F)cc2)c2c(c1)cc1n2CCCNC1=O = 230.5

Recorded result, Cc1c2n(c3c(-c4cc(F)c(F)c(F)c4)cc(C#N)cc13)CCCNC2=O , melting point: 306

melting point reported for this compound Cc1c2n(c3c(-c4ccc([N+](=O)[O-])cc4)cc(F)cc13)CCNC2=O : 309

// recorded melting point for O=C1NCCCn2c1cc1c(F)c(F)cc(-c3ccc(F)cc3)c12 : 287

Per the record, Cc1ccc(-c2cc(F)cc3cc4n(c23)CCNC4=O)cc1 has melting point of 271.5

Lab note: measured melting point of COc1ccc(-c2cc(F)cc3cc4n(c23)CCNC4=O)cc1 was 274.5

The reported value for Cc1ccc(-c2cc(Cl)cc3c(C)c4n(c23)CCNC4=O)cc1F in terms of melting point is 225

Per the record, COc1ccc(-c2cc(F)cc3c(C)c4n(c23)CCNC4=O)cc1 has melting point of 237

Notebook: Cc1c2n(c3c(-c4cccnc4)cc(C#N)cc13)CCCNC2=O , melting point read as 260

Reported melting point of Cc1c2n(c3c(-c4ccc(C#N)s4)cc(F)cc13)CCNC2=O : 249

###

tested on: human embryonic stem cell derived neural stem cells (NSCs); assay: Neural Stem Cell Proliferation Assay (neurogenesis assay, ATP levels by CellTiterGlo); assay type: cell-based; details: 96 h, compound concentration at which 150% activity of control (100%) is reached, NSC proliferation by ATP level after 4 days incubation, dose response 8 μM to 8 nM
Could you please mark 1 (yes) for values of EC (150% of control) below 0.2 µM and 0 (no) for values at or above it?

QUERY: Input Cc1c2n(c3c(-c4ccc(F)cc4F)cc(C#N)cc13)CCCNC2=O ; condition: EC (150% of control) strictly below 0.2 µM. Does it hold?
RESULT: 1 (yes)

QUERY: Given the entry Cc1c2n(c3c(-c4ccc(Cl)cc4Cl)cc(Cl)cc13)CCNC2=O , would its reported EC (150% of control) be below 0.2 µM?
RESULT: 1 (yes)

QUERY: Decide: EC (150% of control) of Cc1cc(-c2ccc(F)c(F)c2)c2c(c1)cc1n2CCCNC1=O strictly below 0.2 µM?
RESULT: 0 (no)

QUERY: Strictly below 0.2 µM in EC (150% of control)? N#Cc1cc(-c2ccc(CO)cc2)c2c(c1)cc1n2CCCNC1=O
RESULT: 0 (no)

QUERY: I wonder whether Cc1c2n(c3c(-c4ccc(Cl)c(F)c4)cc(Cl)cc13)CCNC2=O has EC (150% of control) below 0.2 µM. Can you tell?
RESULT: 1 (yes)

QUERY: Bench note: check whether Cc1c2n(c3c(-c4ccc(C(F)(F)F)cc4)cc(Cl)cc13)CCNC2=O shows EC (150% of control) below 0.2 µM
RESULT: 1 (yes)

QUERY: Does COc1ccc(-c2cc(Cl)cc3c(C)c4n(c23)CCCNC4=O)cc1 have EC (150% of control) strictly under 0.2 µM?
RESULT: 1 (yes)

QUERY: Take the compound Cc1c2n(c3c(-c4cc(F)c(F)c(F)c4)cc(C#N)cc13)CCCNC2=O and say whether its EC (150% of control) is less than 0.2 µM.
RESULT: 0 (no)

QUERY: Quick check: EC (150% of control) of Cc1ccc(-c2cc(C#N)cc3c(C)c4n(c23)CCCNC4=O)cc1 under 0.2 µM?
RESULT: 1 (yes)

QUERY: A record lists Cc1c2n(c3c(-c4ccc(CO)cc4)cc(C#N)cc13)CCNC2=O . Is its EC (150% of control) below 0.2 µM?
RESULT: 1 (yes)

QUERY: Regarding Cc1c2n(c3c(-c4cncnc4)cc(Cl)cc13)CCNC2=O , kindly confirm whether its EC (150% of control) is beneath 0.2 µM.
RESULT: 0 (no)

QUERY: Check if EC (150% of control) falls below 0.2 µM for O=C1NCCn2c1cc1cc(Cl)cc(-c3ccc(F)cc3)c12 .
RESULT: 1 (yes)

QUERY: Say whether its EC (150% of control) is strictly beneath 0.2 µM. Entry: COc1ccc(-c2cc(C#N)cc3c(C)c4n(c23)CCNC4=O)cc1
RESULT: 1 (yes)

QUERY: Does the reported EC (150% of control) of the following compound sit strictly below 0.2 µM? N#Cc1cc(-c2ccc(Cl)c(C(F)(F)F)c2)c2c(c1)cc1n2CCNC1=O
RESULT: 0 (no)

QUERY: Confirm or reject: EC (150% of control) of COc1cc(-c2ccc(C(F)(F)F)cc2)c2c(c1)cc1n2CCNC1=O lies strictly below 0.2 µM
RESULT: 0 (no)

QUERY: Would you kindly verify if EC (150% of control) of Cc1c2n(c3c(-c4ccc(F)cc4F)cc(C#N)cc13)CCNC2=O is strictly less than 0.2 µM?
RESULT: 1 (yes)

QUERY: Answer whether the compound Cc1c2n(c3c(-c4ccc(C#N)cc4)cc(C#N)cc13)CCNC2=O has EC (150% of control) strictly less than 0.2 µM
RESULT: 1 (yes)

QUERY: Determine if Cc1c2n(c3c(-c4ccc(Cl)cc4)cc(C#N)cc13)CCCNC2=O shows EC (150% of control) strictly lower than 0.2 µM.
RESULT: 1 (yes)
